assay: qHTS for Inhibitors of human tyrosyl-DNA phosphodiesterase 1 (TDP1): qHTS in cells in absence of CPT; details: DT40 Tdp1-/- hTDP1 cells, no CPT, ATP luminescence, 48 h; further: nearly all actives have a fitted effect of over 55% in size
Screen size: about 420,000 compounds; about 64,000 (15%) were called active. About 27% were inconclusive and are not listed. The call rests on the fitted dose curve; in most records, active means well fitted inhibition curve with a large enough effect; inconclusive means small, poorly fitted or top-dose-only effect; inactive means flat fitted curve, though single readings scatter. The list is a sample of the results.
Your reply should match one of these outcome classes. active, inactive

Returns: the outcome recorded for O=S1(=O)CCN(Cc2ccccc2)CC1 in this assay.
inactive

Note, next up: CCOC(=O)N1CCN(C(c2cccnc2)c2ccc3cccnc3c2O)CC1 (stereo unspecified)
active

Note, next up: C=CCNC(=O)C1CC=CCC1C(=O)O (stereo unspecified)
inactive

Note, next up: Cc1c(C(=O)c2cccc([N+](=O)[O-])c2)c2ccccn2c1CCC#N
inactive

Note, next up: CC1CCN(CCCn2c(SCC(=O)NC3CCCC3)nc3ccccc3c2=O)CC1
inactive

Note, next up: COc1ccc(C(=O)c2c(C)c(CCC#N)n3ccccc23)c(OC)c1
active

Note, next up: Cc1onc(C(=O)NN)c1C(=O)N1CCN(C(c2ccccc2)c2ccccc2)CC1
inactive

Note, next up: CC1=C(c2ccc(C)cc2)S(=O)(=O)NC1=NCCCN1CCN(c2cc(C)ccc2C)CC1
active

Note, next up: O=C(NCCCCO)C(F)(F)C(F)(F)C(F)(F)C(=O)NCCCCO
inactive

Note, next up: CCOc1ncccc1C(=O)N(CC)CC(=O)Nc1ccc(NC(C)=O)cc1
inactive

Note, next up: CCOC(=O)c1cnc(COc2ccccc2Cl)[nH]c1=O
inactive

Note, next up: S=C(NCc1ccco1)NCc1ccccc1Cl
inactive

Note, next up: O=C(NN1C(=O)C2CCCCC2C1=O)c1ccco1 (stereo unspecified)
inactive

Note, next up: CCOC(=O)Cn1c(SC)nc2sc3c(c2c1=O)CC(C)(C)OC3
active

Note, next up: Cc1ccc(NC(=O)C(C)OC(=O)C2CC3CCCC(C2)C3=O)cc1S(=O)(=O)N1CCOCC1 (stereo unspecified)
inactive

Note, next up: Cc1nc(CC(=O)NNS(=O)(=O)c2ccc(F)c(Cl)c2)cs1
inactive

---

test: qHTS for Inhibitors of human tyrosyl-DNA phosphodiesterase 1 (TDP1): qHTS in cells in absence of CPT; settings: DT40 Tdp1-/- hTDP1 cells, no CPT, ATP luminescence, 48 h; further: nearly all actives have a fitted effect of over 55% in size
Among all 420,000 compounds or so, about 64,000 (15%) were called active. About 27% were inconclusive and are not listed. Calls follow the shape of the dose curve; as a rule, active = well fitted inhibition curve with a large enough effect; inconclusive = small, poorly fitted or top-dose-only effect; inactive = flat fitted curve, though single readings scatter. Not all results are given here.
Your reply should match one of these outcome classes. active, inactive

Returns: the outcome recorded for CNc1cncc(-c2cccc(C(=O)N3CCOCC3)c2)n1 in this assay.
inactive

Note, next up: O=C(Nc1ccc2c(c1)nc1n2CCCCC1)c1cc(S(=O)(=O)N2CCOCC2)ccc1Cl
active

Note, next up: COc1cccc(Nc2ncccc2C(=O)O)c1
inactive

Note, next up: O=C1CSC(c2cccc(F)c2)N1c1ccccc1F (centres undefined)
inactive

Note, next up: CC(=O)Nc1ccc(S(=O)(=O)N2CCC(C(=O)NC3CC3)CC2)cc1
inactive

Note, next up: O=C(C(=O)N1CCOc2ccc(CN3CCN(Cc4ccccn4)CC3)cc2C1)c1ccccc1
inactive

Note, next up: OC(COCc1ccco1)CN1CCN(c2ccccc2)CC1 (centres undefined)
inactive

Note, next up: CC(=O)c1cnc(-c2ccccc2)s1
inactive

Note, next up: CNc1cncc(-c2ccc(NS(C)(=O)=O)cc2)n1
active
